Target: T1, human EphA6 (Homo sapiens, UniProt Q9UF33)
T1 construct: a protein of the extracellular region of each human Eph receptor fused with the SEAP protein and the His tag; made in house; host or cells: Expi293F cells (culture supernatant)
T1 sequence (Q9UF33 23-550 limits assumed): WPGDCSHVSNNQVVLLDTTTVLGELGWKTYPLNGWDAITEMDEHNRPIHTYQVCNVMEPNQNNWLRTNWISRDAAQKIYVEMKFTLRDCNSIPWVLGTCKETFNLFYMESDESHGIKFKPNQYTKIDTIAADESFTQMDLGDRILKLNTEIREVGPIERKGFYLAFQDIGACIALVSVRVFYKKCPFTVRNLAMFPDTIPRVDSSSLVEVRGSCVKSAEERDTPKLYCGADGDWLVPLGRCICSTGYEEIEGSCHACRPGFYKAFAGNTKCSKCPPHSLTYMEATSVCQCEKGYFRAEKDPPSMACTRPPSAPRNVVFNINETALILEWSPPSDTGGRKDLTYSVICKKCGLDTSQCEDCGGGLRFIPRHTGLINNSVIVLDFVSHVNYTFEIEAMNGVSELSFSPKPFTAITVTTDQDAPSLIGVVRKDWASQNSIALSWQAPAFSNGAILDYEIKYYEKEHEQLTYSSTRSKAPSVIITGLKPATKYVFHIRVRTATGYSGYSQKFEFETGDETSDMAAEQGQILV
Experiment: Selectivity ELISA of humanized antibodies for human Eph receptor
Type: binding
Conditions: coated protein 1 nM
I'd appreciate it if you could supply hEphA6-SEAP-: absorbance at 450 nm, percentage with respect to hEphA4-SEAP-His as 100% values for the items below.
The answer consists of two parts: a number and, after it, its unit.

Below, each entry is followed by its recorded hEphA6-SEAP-: absorbance at 450 nm, percentage with respect to hEphA4-SEAP-His as 100% result.
67 (antibody, V domains shown, synthetic humanized antibody heavy chain variable region sequence; synthetic humanized antibody light chain variable region sequence) VH: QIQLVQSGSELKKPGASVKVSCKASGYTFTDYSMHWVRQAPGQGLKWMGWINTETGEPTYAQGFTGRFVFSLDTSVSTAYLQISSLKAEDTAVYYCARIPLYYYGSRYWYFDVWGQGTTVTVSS VL: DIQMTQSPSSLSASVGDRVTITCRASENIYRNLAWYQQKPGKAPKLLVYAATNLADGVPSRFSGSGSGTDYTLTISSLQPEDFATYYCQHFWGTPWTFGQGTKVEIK : 7.3%
87 (antibody, V domains shown, constant regions without entry; synthetic humanized antibody light chain variable region sequence; synthetic humanized antibody heavy chain variable region sequence) VL: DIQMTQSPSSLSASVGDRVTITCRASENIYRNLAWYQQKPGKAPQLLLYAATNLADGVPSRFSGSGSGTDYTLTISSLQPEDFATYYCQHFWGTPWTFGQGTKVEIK VH: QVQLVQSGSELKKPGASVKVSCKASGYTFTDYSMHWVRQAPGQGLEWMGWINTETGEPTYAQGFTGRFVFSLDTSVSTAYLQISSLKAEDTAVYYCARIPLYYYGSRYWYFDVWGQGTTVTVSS : 6.4%
142 (antibody, V domains shown, synthetic humanized antibody heavy chain variable region sequence; synthetic humanized antibody light chain variable region sequence) VH: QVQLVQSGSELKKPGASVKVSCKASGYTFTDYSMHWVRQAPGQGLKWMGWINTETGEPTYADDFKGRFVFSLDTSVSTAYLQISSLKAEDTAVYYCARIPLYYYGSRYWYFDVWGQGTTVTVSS VL: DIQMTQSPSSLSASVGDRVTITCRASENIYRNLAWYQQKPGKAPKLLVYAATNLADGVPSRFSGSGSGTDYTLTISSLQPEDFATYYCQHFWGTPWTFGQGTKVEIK : 9.7%

Continue with the molecule presented below.
Item under review: 136 (antibody, V domains shown, synthetic humanized antibody heavy chain variable region sequence; synthetic humanized antibody light chain variable region sequence) VH: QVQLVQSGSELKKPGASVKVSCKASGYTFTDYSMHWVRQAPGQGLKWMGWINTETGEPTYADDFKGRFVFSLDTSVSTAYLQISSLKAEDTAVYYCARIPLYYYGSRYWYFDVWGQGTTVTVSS VL: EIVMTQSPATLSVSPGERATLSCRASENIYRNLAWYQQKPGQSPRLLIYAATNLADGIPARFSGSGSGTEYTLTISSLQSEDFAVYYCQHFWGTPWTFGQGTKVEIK . Reported hEphA6-SEAP-: absorbance at 450 nm, percentage with respect to hEphA4-SEAP-His as 100%?
7.2%
